# TEST METHOD NOTES: Oral bioavailability in rat
# Format: ADME, organism-based
# CONDITION DESCRIPTION: in vivo
ENDPOINT NAME: bioavailability

INSERT INTO measurements (mol_smiles, experimental_value) VALUES
  ('O=c1[nH]c2c(O)ccc([C@@H](O)CNCCSCCCNCCc3ccccc3Cl)c2s1', '< 1%');

###

Here the recorded Ratio IC50/EC50 is given for each entry.
# TEST METHOD NOTES: Selectivity ratio of IC50 for adrenergic beta1 receptor over EC50 for human adrenergic beta2 receptor
ENDPOINT NAME: Ratio IC50/EC50

INSERT INTO results (molecule, endpoint_name, operator, experimental_value) VALUES
  ('O=c1[nH]c2c(O)ccc([C@@H](O)CNCCCOCCNCCc3cccc(Cl)c3Cl)c2s1', 'Ratio IC50/EC50', '=', 63),
  ('O=c1[nH]c2c(O)ccc([C@@H](O)CNCCCOCCNCCc3cccc(Cl)c3)c2s1', 'Ratio IC50/EC50', '=', 45),
  ('CN(CCOCCCNC[C@H](O)c1ccc(O)c2[nH]c(=O)sc12)CCc1ccccc1', 'Ratio IC50/EC50', '=', 150),
  ('O=c1[nH]c2c(O)ccc([C@@H](O)CNCCCSCCNCCc3cccc(Cl)c3Cl)c2s1', 'Ratio IC50/EC50', '=', 45),
  ('NC(=O)C(c1ccccc1)(c1ccccc1)[C@@H]1CCN(CCc2ccc3c(c2)CCO3)C1', 'Ratio IC50/EC50', '=', 21),
  ('O=c1[nH]c2c(O)ccc([C@@H](O)CNCC[S+]([O-])CCCNCCc3cccc(Cl)c3)c2s1 (some centres not stated)', 'Ratio IC50/EC50', '=', 26),
  ('O=c1[nH]c2c(O)ccc(CCNCCS(=O)(=O)CCCOCCc3ccccc3)c2s1', 'Ratio IC50/EC50', '>', 14000);

###

# TGT: Beta-1 adrenergic receptor (Homo sapiens, UniProt P08588)
# Sequence (P08588 whole entry): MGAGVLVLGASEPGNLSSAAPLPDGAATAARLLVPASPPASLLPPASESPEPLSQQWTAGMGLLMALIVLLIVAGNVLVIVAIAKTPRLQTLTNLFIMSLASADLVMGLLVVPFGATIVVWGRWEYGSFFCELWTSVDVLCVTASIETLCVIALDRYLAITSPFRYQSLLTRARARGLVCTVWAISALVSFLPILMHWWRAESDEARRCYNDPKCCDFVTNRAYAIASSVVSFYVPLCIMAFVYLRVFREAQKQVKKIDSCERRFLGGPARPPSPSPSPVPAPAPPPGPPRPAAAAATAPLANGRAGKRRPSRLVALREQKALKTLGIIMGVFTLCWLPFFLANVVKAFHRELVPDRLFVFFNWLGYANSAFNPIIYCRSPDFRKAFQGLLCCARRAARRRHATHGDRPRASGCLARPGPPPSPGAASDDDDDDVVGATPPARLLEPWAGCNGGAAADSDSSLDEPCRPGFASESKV
ENDPOINT NAME: IC50 (nM)

INSERT INTO results (mol_smiles, endpoint_name, unit_name, experimental_value) VALUES
  ('O=c1[nH]c2c(O)ccc([C@@H](O)CNCCCSCCNCCc3cccc(Cl)c3Cl)c2s1', 'IC50', 'nM', 79.4);

###

Below are EC50 values measured for Beta-2 adrenergic receptor (Homo sapiens, UniProt P07550).
ENDPOINT NAME: EC50 (nM)

INSERT INTO assay_data (compound, endpoint_name, experimental_value) VALUES
  ('O=c1[nH]c2c(O)ccc([C@@H](O)CNCC[S+]([O-])CCCNCCc3cccc(Cl)c3)c2s1 (stereo not given in full)', 'EC50', 5.01),
  ('CN(CCOCCCNC[C@H](O)c1ccc(O)c2[nH]c(=O)sc12)CCc1ccccc1', 'EC50', 2.51),
  ('O=c1[nH]c2c(O)ccc([C@@H](O)CNCCCOCCNCCc3cccc(Cl)c3)c2s1', 'EC50', 0.2),
  ('O=c1[nH]c2c(O)ccc([C@@H](O)CNCCCSCCNCCc3cccc(Cl)c3Cl)c2s1', 'EC50', 1.58),
  ('O=c1[nH]c2c(O)ccc(CCNCCS(=O)(=O)CCCOCCc3ccccc3)c2s1', 'EC50', 0.631);

###

# Test system: Cavia porcellus
# TEST METHOD NOTES: Bronchodilatory activity in intratracheally dosed guinea pig assessed as inhibition of histamine-induced bronchoconstriction
# CONDITION DESCRIPTION: inhaled or nasal
ENDPOINT NAME: ED80

INSERT INTO results (compound, experimental_value) VALUES
  ('O=c1[nH]c2c(O)ccc(CCNCCS(=O)(=O)CCCOCCc3ccccc3)c2s1', '7 µg/kg'),
  ('OCc1cc(C(O)CNCCCCCCOCCCCc2ccccc2)ccc1O (centres undefined)', '1 µg/kg'),
  ('NC(=O)C(c1ccccc1)(c1ccccc1)[C@@H]1CCN(CCc2ccc3c(c2)CCO3)C1', '14 µg/kg'),
  ('O=c1[nH]c2c(O)ccc([C@@H](O)CNCCSCCCNCCc3ccccc3Cl)c2s1', '7 µg/kg');
